# study system: BCLXL WT (Homo sapiens (Human))
# Sequence (Q07817 other isoform, or with tags, fused parts or gaps): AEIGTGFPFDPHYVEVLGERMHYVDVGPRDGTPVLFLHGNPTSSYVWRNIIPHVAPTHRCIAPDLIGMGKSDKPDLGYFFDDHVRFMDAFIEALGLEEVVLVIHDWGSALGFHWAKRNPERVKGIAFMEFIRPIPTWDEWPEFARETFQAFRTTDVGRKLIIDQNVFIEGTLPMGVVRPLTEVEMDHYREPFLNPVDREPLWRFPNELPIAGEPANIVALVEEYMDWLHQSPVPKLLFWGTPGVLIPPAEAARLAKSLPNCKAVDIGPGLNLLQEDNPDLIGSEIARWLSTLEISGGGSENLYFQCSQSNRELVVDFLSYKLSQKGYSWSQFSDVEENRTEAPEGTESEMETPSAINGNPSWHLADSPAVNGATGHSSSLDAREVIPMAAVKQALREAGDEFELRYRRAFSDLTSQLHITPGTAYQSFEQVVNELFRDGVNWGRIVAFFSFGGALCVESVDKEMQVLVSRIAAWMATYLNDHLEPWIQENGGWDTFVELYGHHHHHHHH
# procedure summary: TR-FRET competitive binding assay, BCLXL WT
# recorded conditions: ratio Ki BCLxL / Ki BCL2 WT
result type: TR_FRET EKI BCLxL/WT selectivty ratio

P: Cc1c(N(C(=O)c2cc(-c3cc4c(cc3C(=O)N3Cc5ccccc5C[C@H]3CN3CCCCC3)CN(C(=O)Cc3ccc(OCCN5CCN(CCF)CC5)cc3F)CC4)n(C)c2C)c2ccc(O)cc2)cc(C#N)n1C [Example 117]
Q: Cc1c(C(=O)N(c2ccccc2)c2cnn(C)c2)cc(-c2cc3c(cc2C(=O)N2Cc4ccccc4C[C@H]2C)CN(C(=O)Cc2cccc(N4CC5(CN(C)C5)C4)c2)CC3)n1C [Example 217]
R: COc1cc(OCCN2CCOCC2)ccc1CC(=O)N1CCc2cc(-c3cc(C(=O)N(c4ccc(O)cc4)c4cc(C#N)n(C)c4C)c(C)n3C)c(C(=O)N3Cc4ccccc4C[C@H]3CN3CCCCC3)cc2C1 [Example 114]
Task: I'd appreciate it if you sorted the entries above by their TR_FRET EKI BCLxL/WT selectivty ratio, lowest to highest. # answer = labels listed in requested order
Result: Q, P, R
